Measured koff, listed per entry for reference.
- Target under test: T1, cyno activated protein C (cyno (monkey))
- T1 construct: also called cyno aPC; cyno APC
- Run description: SPR (Biacore), 1:1 binding model

Recorded koff, per entry:
Hu1573-17 (antibody, V domains shown, Humanized IgG, human gamma 1 / kappa constant regions by vectors pCP-hCg1 and pCP-hck; also called H1573VH.1F + H1573Vk.2B) VH: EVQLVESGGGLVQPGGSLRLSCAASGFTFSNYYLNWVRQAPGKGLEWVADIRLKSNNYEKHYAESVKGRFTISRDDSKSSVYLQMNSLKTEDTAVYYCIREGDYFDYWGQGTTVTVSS VL: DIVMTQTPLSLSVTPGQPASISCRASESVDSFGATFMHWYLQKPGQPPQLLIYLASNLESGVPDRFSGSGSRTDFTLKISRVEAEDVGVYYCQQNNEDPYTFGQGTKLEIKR; 0.0042 s⁻¹
Hu1573-10 (antibody, V domains shown, Humanized IgG, human gamma 1 / kappa constant regions by vectors pCP-hCg1 and pCP-hck; also called H1573VH.1D + H1573Vk.2A) VH: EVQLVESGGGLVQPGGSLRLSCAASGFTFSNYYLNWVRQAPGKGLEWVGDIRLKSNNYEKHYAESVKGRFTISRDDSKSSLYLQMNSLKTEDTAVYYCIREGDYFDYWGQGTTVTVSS VL: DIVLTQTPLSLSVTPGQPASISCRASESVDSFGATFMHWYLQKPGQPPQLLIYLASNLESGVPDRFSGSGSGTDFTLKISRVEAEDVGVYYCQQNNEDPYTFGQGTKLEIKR; 0.00479 s⁻¹

Alright, here's another binder for you.
Which koff is reported for this binder? Hu1573-14 (antibody, V domains shown, Humanized IgG, human gamma 1 / kappa constant regions by vectors pCP-hCg1 and pCP-hck; also called H1573VH.1E + H1573Vk.2B) VH: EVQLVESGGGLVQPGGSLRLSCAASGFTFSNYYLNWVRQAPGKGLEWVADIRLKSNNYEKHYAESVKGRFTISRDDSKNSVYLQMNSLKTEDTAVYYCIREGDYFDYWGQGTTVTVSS VL: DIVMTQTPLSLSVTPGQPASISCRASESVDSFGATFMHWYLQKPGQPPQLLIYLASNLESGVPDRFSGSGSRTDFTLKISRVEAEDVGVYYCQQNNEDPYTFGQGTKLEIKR 0.00524 s⁻¹

// data source = patent USRE49099
